What inhibition at 1 µM was measured for each of the following?
molecular target: TAF1(BD2) (Homo sapiens, UniProt P21675); construct: the second bromodomain of TAF1 (TAF1 (2)); purchased DiscoverX Corporation (contract assay); host or cells: T7 phage in E. coli host derived from BL21; assay: BROMOscan primary screen, binding to TAF1(BD2); settings: read-out: TAF1_BD2 (% inhibition at 1 μM)
Sequence (P21675 1519-1628 limits assumed): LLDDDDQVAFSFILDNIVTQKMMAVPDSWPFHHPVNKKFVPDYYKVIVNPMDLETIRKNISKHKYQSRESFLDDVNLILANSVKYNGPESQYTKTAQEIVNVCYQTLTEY
Write the number in % without appending the unit.

Suppose we examine the compound COc1ccc(C(=O)NC2CCCc3c2ccc(=O)n3C)cc1 (centres unmarked) ; what inhibition at 1 µM value has been reported?
34

Suppose we examine the compound Cn1c2c(ccc1=O)C(NC(=O)c1ccc3c(c1)OCCO3)CCC2 (centres unmarked) ; what inhibition at 1 µM value has been reported?
32

Suppose we examine the compound COc1cc(NC(=O)c2cc(=O)n(C)c3ccccc23)cc(OC)c1 ; what inhibition at 1 µM value has been reported?
48

Suppose we examine the compound Cn1c(=O)cc(C(=O)Nc2ccc(OC(F)(F)F)cc2)c2ccccc21 ; what inhibition at 1 µM value has been reported?
20

Suppose we examine the compound COc1ccc(NC(=O)c2cc(=O)n(C)c3ccccc23)cc1 ; what inhibition at 1 µM value has been reported?
9
